Would you mind telling me the reported ratio of amounts bound (vs GLS3000) of each entry?
# Target entity: CD3ε homodimer protein (human, UniProt P07766 23-126, limits assumed)
# Sequence (P07766 23-126 limits assumed): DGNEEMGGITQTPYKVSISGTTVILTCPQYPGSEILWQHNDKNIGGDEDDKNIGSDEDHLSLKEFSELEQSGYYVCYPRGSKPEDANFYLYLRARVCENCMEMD
# Method summary: SPR, immobilized CD3ε homodimer;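 further: biacore T200 surface plasmon resonance at 25 °C, antibody variants flowed as analytes over amine-coupled CD3ε homodimer on a CM4 chip, variant binding amount divided by that of GLS3000 antibody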
Give only the figure.

Problem: Please supply the value of reported ratio of amounts bound (vs GLS3000) for the item GLS3000 P95A (antibody, name in Kabat numbering, V domains shown, one-arm format as m2) VH: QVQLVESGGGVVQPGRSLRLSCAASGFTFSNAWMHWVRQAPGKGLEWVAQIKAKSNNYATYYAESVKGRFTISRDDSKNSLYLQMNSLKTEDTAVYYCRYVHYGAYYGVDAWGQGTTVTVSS VL: DIVMTQSPLSLPVTPGEPASISCRSSQSLVHSNRNTYLHWYQQKPGQAPRLLIYKVSNRFSGVPDRFSGSGSGTDFTLKISRVEAEDVGVYYCGQGTQVAYTFGQGTKLEIK
Solution: 0.63

Problem: Supply recorded ratio of amounts bound (vs GLS3000) for GLS3000 F55P (antibody, name in Kabat numbering, V domains shown, one-arm format as m2) VH: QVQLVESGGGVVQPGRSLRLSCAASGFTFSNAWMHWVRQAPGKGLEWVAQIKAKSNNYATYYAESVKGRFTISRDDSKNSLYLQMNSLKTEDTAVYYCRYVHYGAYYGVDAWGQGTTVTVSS VL: DIVMTQSPLSLPVTPGEPASISCRSSQSLVHSNRNTYLHWYQQKPGQAPRLLIYKVSNRPSGVPDRFSGSGSGTDFTLKISRVEAEDVGVYYCGQGTQVPYTFGQGTKLEIK here.
Solution: 1.16

Problem: Please report ratio of amounts bound (vs GLS3000) for the following binder: GLS3000 V51D (antibody, name in Kabat numbering, V domains shown, one-arm format as m2) VH: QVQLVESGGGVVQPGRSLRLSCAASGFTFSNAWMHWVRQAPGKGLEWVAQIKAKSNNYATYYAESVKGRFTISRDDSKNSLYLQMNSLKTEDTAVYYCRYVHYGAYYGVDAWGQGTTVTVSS VL: DIVMTQSPLSLPVTPGEPASISCRSSQSLVHSNRNTYLHWYQQKPGQAPRLLIYKDSNRFSGVPDRFSGSGSGTDFTLKISRVEAEDVGVYYCGQGTQVPYTFGQGTKLEIK
Solution: 0.33

Problem: Give the reported ratio of amounts bound (vs GLS3000) for this binder. GLS3000 V94R (antibody, name in Kabat numbering, V domains shown, one-arm format as m2) VH: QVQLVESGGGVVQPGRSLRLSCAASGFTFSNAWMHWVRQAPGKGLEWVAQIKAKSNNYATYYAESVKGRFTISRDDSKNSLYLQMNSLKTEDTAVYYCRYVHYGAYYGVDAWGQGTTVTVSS VL: DIVMTQSPLSLPVTPGEPASISCRSSQSLVHSNRNTYLHWYQQKPGQAPRLLIYKVSNRFSGVPDRFSGSGSGTDFTLKISRVEAEDVGVYYCGQGTQRPYTFGQGTKLEIK
Solution: 0.66

Problem: # return recorded ratio of amounts bound (vs GLS3000) for entry GLS3000 Y96D (antibody, name in Kabat numbering, V domains shown, one-arm format as m2) VH: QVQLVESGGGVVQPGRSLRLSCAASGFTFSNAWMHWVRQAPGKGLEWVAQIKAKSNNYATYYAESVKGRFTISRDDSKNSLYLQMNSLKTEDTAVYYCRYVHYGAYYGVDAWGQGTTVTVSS VL: DIVMTQSPLSLPVTPGEPASISCRSSQSLVHSNRNTYLHWYQQKPGQAPRLLIYKVSNRFSGVPDRFSGSGSGTDFTLKISRVEAEDVGVYYCGQGTQVPDTFGQGTKLEIK
Solution: 0.17

Problem: Identify measured ratio of amounts bound (vs GLS3000) associated with GLS3000 F55H (antibody, name in Kabat numbering, V domains shown, one-arm format as m2) VH: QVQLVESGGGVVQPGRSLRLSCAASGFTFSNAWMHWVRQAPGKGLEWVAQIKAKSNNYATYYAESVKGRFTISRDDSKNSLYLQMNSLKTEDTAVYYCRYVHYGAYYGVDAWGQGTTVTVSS VL: DIVMTQSPLSLPVTPGEPASISCRSSQSLVHSNRNTYLHWYQQKPGQAPRLLIYKVSNRHSGVPDRFSGSGSGTDFTLKISRVEAEDVGVYYCGQGTQVPYTFGQGTKLEIK
Solution: 0.94

Problem: Could you please provide reported ratio of amounts bound (vs GLS3000) for GLS3000 N28Q (antibody, name in Kabat numbering, V domains shown, one-arm format as m2) VH: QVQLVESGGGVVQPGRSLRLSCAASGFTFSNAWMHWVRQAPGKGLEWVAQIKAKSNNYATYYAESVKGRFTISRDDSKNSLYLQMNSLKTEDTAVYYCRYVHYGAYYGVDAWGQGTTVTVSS VL: DIVMTQSPLSLPVTPGEPASISCRSSQSLVHSQRNTYLHWYQQKPGQAPRLLIYKVSNRFSGVPDRFSGSGSGTDFTLKISRVEAEDVGVYYCGQGTQVPYTFGQGTKLEIK ? Thanks!
Solution: 0.37

Problem: Determine its reported ratio of amounts bound (vs GLS3000): GLS3000 G89I (antibody, name in Kabat numbering, V domains shown, one-arm format as m2) VH: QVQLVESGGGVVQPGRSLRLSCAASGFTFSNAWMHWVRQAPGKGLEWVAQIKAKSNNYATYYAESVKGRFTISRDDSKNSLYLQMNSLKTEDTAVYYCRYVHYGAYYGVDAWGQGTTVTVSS VL: DIVMTQSPLSLPVTPGEPASISCRSSQSLVHSNRNTYLHWYQQKPGQAPRLLIYKVSNRFSGVPDRFSGSGSGTDFTLKISRVEAEDVGVYYCIQGTQVPYTFGQGTKLEIK
Solution: 1.07

Problem: Identify measured ratio of amounts bound (vs GLS3000) associated with GLS3000 L33M (antibody, name in Kabat numbering, V domains shown, one-arm format as m2) VH: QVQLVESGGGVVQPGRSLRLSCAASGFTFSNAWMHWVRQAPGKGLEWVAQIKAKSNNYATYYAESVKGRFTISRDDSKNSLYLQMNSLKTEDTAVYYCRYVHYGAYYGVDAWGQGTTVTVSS VL: DIVMTQSPLSLPVTPGEPASISCRSSQSLVHSNRNTYMHWYQQKPGQAPRLLIYKVSNRFSGVPDRFSGSGSGTDFTLKISRVEAEDVGVYYCGQGTQVPYTFGQGTKLEIK
Solution: 0.93

Problem: Note ratio of amounts bound (vs GLS3000) for the binder shown: GLS3000 H34E (antibody, name in Kabat numbering, V domains shown, one-arm format as m2) VH: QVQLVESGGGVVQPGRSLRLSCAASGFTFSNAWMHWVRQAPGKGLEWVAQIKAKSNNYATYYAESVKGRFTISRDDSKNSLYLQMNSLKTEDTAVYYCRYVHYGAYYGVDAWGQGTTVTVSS VL: DIVMTQSPLSLPVTPGEPASISCRSSQSLVHSNRNTYLEWYQQKPGQAPRLLIYKVSNRFSGVPDRFSGSGSGTDFTLKISRVEAEDVGVYYCGQGTQVPYTFGQGTKLEIK
Solution: 0.23

Reference source: patent US20220040297A1
